The binders listed here are annotated with their Kd.
# target of assay: T1, cTnI quality control product recombinant protein (human, UniProt P19429 2-210, limits assumed)
# T1 construct: treated as the same molecule; also called cTnI antigen; cardiac troponin I
# T1 sequence (P19429 2-210 limits assumed): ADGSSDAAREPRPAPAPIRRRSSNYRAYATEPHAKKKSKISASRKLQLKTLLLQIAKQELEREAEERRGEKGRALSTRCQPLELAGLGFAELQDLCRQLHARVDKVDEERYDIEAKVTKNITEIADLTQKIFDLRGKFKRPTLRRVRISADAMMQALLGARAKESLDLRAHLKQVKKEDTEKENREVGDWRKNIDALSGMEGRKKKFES
# test summary: AMC sensor, antibody immobilised, cTnI in solution
# Description: Operating process: it is equilibrated in Buffer 1 (PBST) for 60 s, the antibody is immobilized in an antibody solution for 300 s, incubated in Buffer 2 (PBST) for 180 s, bound in antigen solution for 420 s, dissociated in the Buffer 2 for 1200 s, 10 mM of GLY solution with pH 1.69 and Buffer 3 are used for sensor regeneration, and data is output. KD represents an equilibrium dissociation constant, namely the affinity; Kon represents a binding rate; and Kd is represents a dissociation rate.
Quick reminder: number only, in nM, skip the unit.

Consider the reported Kd for these binders:
Mutation 1-25 (antibody, V domains shown, Built as m8) VH: EVQLQQSGPELVKPGASVKMSCKASGYTFTIYVLHWVKQKPGQGLEWIGYIYPYLDGTKYNEKFKGKATLTVDKSSSTAFMELSSLTSEDSAVYYCARSGYGNYGLAWLAYWGQGTLVTVSA VL: QAVVIQESALTTSPGETVTLTCRSSTGAATTSNYANWVQEKPDHLFTGLIGGSQNRAPGVPARFSGSLIGDKAALTITGAQTEDEAIYFCALVYSNHWVFGGGTKLTVLG	6.6
Mutation 1-11 (antibody, V domains shown, Built as m8) VH: EVQLQQSGPELVKPGASVKMSCKASGYTFTLYVIHWVKQKPGQGLEWIGYINPYIDGTKYNEKFKGKATLTVDKSSSTAFMELSSLTSEDSAVYYCARSGYGGYGLAWLAYWGQGTLVTVSA VL: QAVVIQESALTTSPGETVTLTCRSSTGAVTTSNYANWVQEKPDHLFTGLIGGSQNRAPGVPARFSGSLIGDKAALTITGAQTEDEAIYFCALVYSNNWVFGGGTKLTVLG	4.23
Mutation 1-17 (antibody, V domains shown, Built as m8) VH: EVQLQQSGPELVKPGASVKMSCKASGYTFTLYVIHWVKQKPGQGLEWIGYINPYLDGTKYNEKFKGKATLTVDKSSSTAFMELSSLTSEDSAVYYCARSGYGGYGLAWLAYWGQGTLVTVSA VL: QAVVIQESALTTSPGETVTLTCRSSTGAATTSNYANWVQEKPDHLFTGLIGGSQNRAPGVPARFSGSLIGDKAALTITGAQTEDEAIYFCALVYSNQWVFGGGTKLTVLG	7.37
Mutation 1-52 (antibody, V domains shown, Built as m8) VH: EVQLQQSGPELVKPGASVKMSCKASGYTFTIYVVHWVKQKPGQGLEWIGYINPYLDGTKYNEKFKGKATLTVDKSSSTAFMELSSLTSEDSAVYYCARSGYGNYGLAWLAYWGQGTLVTVSA VL: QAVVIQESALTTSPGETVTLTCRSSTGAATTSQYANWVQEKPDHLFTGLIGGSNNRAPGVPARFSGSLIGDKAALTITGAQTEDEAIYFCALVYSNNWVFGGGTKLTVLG	6.01

Reported Kd of Mutation 1-1 (antibody, V domains shown, built as m3) VH: EVQLQQSGPELVKPGASVKMSCKASGYTFTIYVLHWVKQKPGQGLEWIGYIQPYIDGTKYNEKFKGKATLTVDKSSSTAFMELSSLTSEDSAVYYCARSGYGNYGLAWLAYWGQGTLVTVSA VL: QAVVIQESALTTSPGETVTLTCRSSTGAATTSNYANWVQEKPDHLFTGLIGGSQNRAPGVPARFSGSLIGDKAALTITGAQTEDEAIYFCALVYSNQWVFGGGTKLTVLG : 8.27
